Source of measurements: ChEMBL document CHEMBL2151029

Assay: Tmax in db/db mouse at 100 mg/kg, po
Type: ADME, organism-based
Design: dose 100 mg/kg, route oral
Conditions: in vivo
Result Type: Tmax (min)

(I) O=S(=O)(Nc1cnc(Oc2cnc3ccccc3c2)c(Cl)c1)c1ccc(F)c(F)c1
(II) COc1ccc(S(=O)(=O)Nc2cnc(Oc3cnc4ccccc4c3)c(Cl)c2)cc1OC
Kindly identify which of I and II has the larger recorded Tmax value. Could you answer with the label of the item you picked?
I

###

Assay: Clearance in db/db mouse at 100 mg/kg, po
Format: ADME, organism-based
Design: dose 100 mg/kg, route oral
Conditions: in vivo
Result Type: CL/F (mL/min/kg)

(a) COc1ccc(S(=O)(=O)Nc2cnc(Oc3cnc4ccccc4c3)c(Cl)c2)cc1OC
(b) O=S(=O)(Nc1cnc(Oc2cnc3ccccc3c2)c(Cl)c1)c1ccc(F)c(F)c1
# return whichever of a and b has the smaller CL/F Indicate which entry you chose by stating its label.
a

###

Biological target: Peroxisome proliferator-activated receptor gamma (Homo sapiens)
Sequence (whole entry): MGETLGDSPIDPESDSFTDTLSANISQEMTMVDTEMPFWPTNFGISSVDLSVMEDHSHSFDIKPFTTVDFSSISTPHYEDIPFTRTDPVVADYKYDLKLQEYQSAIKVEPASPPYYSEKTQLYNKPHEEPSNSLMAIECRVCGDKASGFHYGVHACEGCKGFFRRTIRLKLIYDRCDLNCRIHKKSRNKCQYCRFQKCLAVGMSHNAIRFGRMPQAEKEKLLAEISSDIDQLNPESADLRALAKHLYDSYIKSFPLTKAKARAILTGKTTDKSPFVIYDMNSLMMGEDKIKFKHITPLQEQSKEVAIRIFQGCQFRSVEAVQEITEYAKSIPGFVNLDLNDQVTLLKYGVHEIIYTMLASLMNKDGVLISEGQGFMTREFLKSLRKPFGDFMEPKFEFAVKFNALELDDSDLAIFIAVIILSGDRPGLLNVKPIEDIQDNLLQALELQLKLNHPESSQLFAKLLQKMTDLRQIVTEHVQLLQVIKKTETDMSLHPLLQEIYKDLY
Assay: Agonist activity at human PPARgamma receptor expressed in HEK293 cells at 10 uM relative to PPARgamma full agonist at 1 uM
Result Type: Emax (%)

Field: example entries. Status: answers known.
Smiles Data | Target Desc | U | Emax
COc1ccc(OC)c(S(=O)(=O)Nc2cnc(Oc3cnc4ccccc4c3)c(Cl)c2)c1 | Peroxisome proliferator-activated receptor gamma (Homo sapiens) | % | 71
O=S(=O)(Nc1cnc(Oc2cnc3ccccc3c2)c(Cl)c1)c1ccc(F)c(Cl)c1 | Peroxisome proliferator-activated receptor gamma (Homo sapiens) | % | 28
Cc1cc(F)ccc1S(=O)(=O)Nc1cnc(Oc2cnc3ccccc3c2)c(Cl)c1 | Peroxisome proliferator-activated receptor gamma (Homo sapiens) | % | 83

(a) O=S(=O)(Nc1cnc(Oc2cnc3ccccc3c2)c(Cl)c1)c1ccc(F)c(F)c1
(b) Cc1cccc(S(=O)(=O)Nc2cnc(Oc3cnc4ccccc4c3)c(Cl)c2)c1
Compare a and b and name the one whose reported Emax is smaller. # answer = label of selected item
b

###

Assay: Terminal elimination half life in db/db mouse at 100 mg/kg, po
Format: ADME, organism-based
Set-up: dose 100 mg/kg, route oral
Settings: in vivo, read-out: beta t1/2 (converted)
Result Type: half-life (min)

(A) COc1ccc(S(=O)(=O)Nc2cnc(Oc3cnc4ccccc4c3)c(Cl)c2)cc1OC
(B) O=S(=O)(Nc1cnc(Oc2cnc3ccccc3c2)c(Cl)c1)c1ccc(F)c(F)c1
From the recorded data, which exceeds the other in half-life: A or B ? Select an item and report its label.
A

###

Biological target: Peroxisome proliferator-activated receptor gamma (Mus musculus) (UniProt P37238)
Sequence (P37238 whole entry): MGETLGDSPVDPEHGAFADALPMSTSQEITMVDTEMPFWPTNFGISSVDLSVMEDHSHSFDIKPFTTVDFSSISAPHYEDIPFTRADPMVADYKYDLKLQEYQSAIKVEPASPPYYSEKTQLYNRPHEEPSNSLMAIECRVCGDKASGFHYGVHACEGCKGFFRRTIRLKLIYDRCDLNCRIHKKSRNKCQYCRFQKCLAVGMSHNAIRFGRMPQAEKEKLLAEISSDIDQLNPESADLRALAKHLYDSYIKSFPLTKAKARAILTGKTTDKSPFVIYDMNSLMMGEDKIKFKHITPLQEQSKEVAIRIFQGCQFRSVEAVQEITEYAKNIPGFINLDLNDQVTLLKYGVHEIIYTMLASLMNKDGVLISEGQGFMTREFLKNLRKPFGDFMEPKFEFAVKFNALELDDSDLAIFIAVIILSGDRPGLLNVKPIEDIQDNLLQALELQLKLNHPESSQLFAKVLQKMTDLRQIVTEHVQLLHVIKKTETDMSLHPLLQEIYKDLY
Assay: Agonist activity at PPARgamma receptor in mouse 3T3-L1 cells assessed as adipogenesis at 20 ug/mL relative to insulin
Format: functional, cell-based
Result Type: Emax (%)

Previously resolved entries follow.
Smiles Data | U | Emax
O=S(=O)(Nc1cnc(Oc2cnc3ccccc3c2)c(Cl)c1)c1ccc(F)cc1F | % | 56
O=S(=O)(Nc1cnc(Oc2cnc3ccccc3c2)c(Cl)c1)c1ccc(F)c(Cl)c1 | % | 56
Cc1cc(F)ccc1S(=O)(=O)Nc1cnc(Oc2cnc3ccccc3c2)c(Cl)c1 | % | 73

(P) O=S(=O)(Nc1cnc(Oc2cnc3ccccc3c2)c(Cl)c1)c1ccc(C(F)(F)F)cc1Cl
(Q) Cc1ccccc1S(=O)(=O)Nc1cnc(Oc2cnc3ccccc3c2)c(Cl)c1
Which value of Emax is numerically greater: that of P or that of Q ? Pick one and reply with its label.
Q

(I) O=S(=O)(Nc1cnc(Oc2cnc3ccccc3c2)c(Cl)c1)c1ccc(F)c(F)c1
(II) O=S(=O)(Nc1cnc(Oc2cnc3ccccc3c2)c(Cl)c1)c1ccc(F)cc1Cl
In the pair I and II , the larger recorded Emax belongs to which? The response must carry the label of the picked entry.
I
(I: 95%, II: 51%)

###

Experiment: Cmax in db/db mouse at 100 mg/kg, po
Type: ADME, organism-based
Design: dose 100 mg/kg, route oral
Settings: in vivo
Result Type: Cmax (ng/mL)

(P) O=S(=O)(Nc1cnc(Oc2cnc3ccccc3c2)c(Cl)c1)c1ccc(F)c(F)c1
(Q) COc1ccc(S(=O)(=O)Nc2cnc(Oc3cnc4ccccc4c3)c(Cl)c2)cc1OC
Between P and Q , which one shows the smaller Cmax number? Refer to your chosen entry by its label in the reply.
P
(P: 8330 ng/mL, Q: 33900 ng/mL)

###

Target: Peroxisome proliferator-activated receptor gamma (Homo sapiens)
Sequence (whole entry): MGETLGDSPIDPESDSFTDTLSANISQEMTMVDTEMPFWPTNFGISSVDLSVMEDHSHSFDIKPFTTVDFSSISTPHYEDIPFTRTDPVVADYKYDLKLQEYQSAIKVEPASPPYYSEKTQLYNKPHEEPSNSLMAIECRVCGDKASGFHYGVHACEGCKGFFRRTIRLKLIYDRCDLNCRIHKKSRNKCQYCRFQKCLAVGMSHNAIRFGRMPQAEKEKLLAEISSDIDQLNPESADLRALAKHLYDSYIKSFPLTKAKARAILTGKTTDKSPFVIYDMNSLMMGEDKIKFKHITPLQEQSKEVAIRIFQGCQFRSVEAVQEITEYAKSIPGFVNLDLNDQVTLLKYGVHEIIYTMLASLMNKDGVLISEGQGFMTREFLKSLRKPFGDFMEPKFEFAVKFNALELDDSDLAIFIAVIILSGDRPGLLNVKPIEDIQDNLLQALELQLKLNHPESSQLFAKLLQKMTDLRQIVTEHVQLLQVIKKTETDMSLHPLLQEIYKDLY
Test: Agonist activity at human PPARgamma receptor expressed in HEK293 cells at 10 uM relative to PPARgamma full agonist at 1 uM
Result Type: Emax (%)

Smiles Data | Experimental Value
COc1ccc(S(=O)(=O)Nc2cnc(Oc3cnc4ccccc4c3)c(Cl)c2)cc1OC | 93
O=S(=O)(Nc1cnc(Oc2cnc3ccccc3c2)c(Cl)c1)c1ccc(F)cc1Cl | 39
Cc1ccc(S(=O)(=O)Nc2cnc(Oc3cnc4ccccc4c3)c(Cl)c2)c(C)c1 | 31
Cc1ccccc1S(=O)(=O)Nc1cnc(Oc2cnc3ccccc3c2)c(Cl)c1 | 43
O=S(=O)(Nc1cnc(Oc2cnc3ccccc3c2)c(Cl)c1)c1ccc(Cl)c(Cl)c1 | 56
O=S(=O)(Nc1cnc(Oc2cnc3ccccc3c2)c(Cl)c1)c1cccc(F)c1 | 62

(I) O=S(=O)(Nc1cnc(Oc2cnc3ccccc3c2)c(Cl)c1)c1cccc(C(F)(F)F)c1
(II) O=S(=O)(Nc1cnc(Oc2cnc3ccccc3c2)c(Cl)c1)c1ccc(F)cc1F
(III) O=S(=O)(Nc1cnc(Oc2cnc3ccccc3c2)c(Cl)c1)c1ccc(C(F)(F)F)cc1Cl
Arrange the 3 entries by Emax so the values rise. Output spec: a listing of the labels in the requested order.
II, I, III

###

Biological target: Peroxisome proliferator-activated receptor gamma (Mus musculus) (UniProt P37238)
Test: Agonist activity at PPARgamma receptor in mouse 3T3-L1 cells assessed as adipogenesis at 20 ug/mL relative to insulin
Format: functional, cell-based
Result Type: Emax (%)

Solved entries:
Smiles Data | Emax (%)
COc1ccc(S(=O)(=O)Nc2cnc(Oc3cnc4ccccc4c3)c(Cl)c2)cc1OC | 60
O=S(=O)(Nc1cnc(Oc2cnc3ccccc3c2)c(Cl)c1)c1cccc(C(F)(F)F)c1 | 75
COc1ccc(OC)c(S(=O)(=O)Nc2cnc(Oc3cnc4ccccc4c3)c(Cl)c2)c1 | 54

(I) Cc1cccc(S(=O)(=O)Nc2cnc(Oc3cnc4ccccc4c3)c(Cl)c2)c1
(II) O=S(=O)(Nc1cnc(Oc2cnc3ccccc3c2)c(Cl)c1)c1ccc(Cl)c(Cl)c1
When I and II are compared, which has the higher number for Emax? State the label of the item chosen.
I
(I: 90%, II: 35%)
